experimental.system: UniProtKB P0DMS8
Sequence (P0DMS8 whole entry): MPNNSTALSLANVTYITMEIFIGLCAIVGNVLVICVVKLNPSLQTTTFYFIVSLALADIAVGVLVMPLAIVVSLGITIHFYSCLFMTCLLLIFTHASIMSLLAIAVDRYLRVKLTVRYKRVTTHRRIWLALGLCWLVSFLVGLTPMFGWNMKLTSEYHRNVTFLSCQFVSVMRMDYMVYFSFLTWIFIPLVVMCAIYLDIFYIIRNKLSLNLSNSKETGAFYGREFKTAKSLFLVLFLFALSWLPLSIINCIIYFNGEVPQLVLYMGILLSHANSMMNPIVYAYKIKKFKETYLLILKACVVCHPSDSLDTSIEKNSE
procedure.summary: Displacement of [3H]PSB-11 from human adenosine A3 receptor expressed in CHO cell membranes at 1 uM relative to control
observable: inhibition (%)

// worked examples, inhibition included
* CCCn1c(=O)c2c(nc3n2CCCN3CCc2ccc(OCC(=O)NCc3ccccc3)cc2)n(CCC)c1=O | 34
* CCCn1c(=O)c2c(nc3n2CCCN3CCc2ccc(OCC(=O)NCCCN(CC)CC)cc2)n(CCC)c1=O | 36

I: CCCCn1c(=O)c2c(nc3n2CCCN3CCc2ccc(OCC(=O)NCc3cccc(Cl)c3)cc2)n(CCCC)c1=O
II: CCCn1c(=O)c2c(nc3n2CCCN3CCc2ccc(OCC(=O)NCCN3CCOCC3)cc2)n(CCC)c1=O
Quick check, higher inhibition between I and II ? Mark your answer with the label of the selected entry.
I
(I: 42%, II: 21%)

---

experimental.system: Adenosine receptor A1 (Rattus norvegicus, UniProt P25099)
Sequence (P25099 whole entry): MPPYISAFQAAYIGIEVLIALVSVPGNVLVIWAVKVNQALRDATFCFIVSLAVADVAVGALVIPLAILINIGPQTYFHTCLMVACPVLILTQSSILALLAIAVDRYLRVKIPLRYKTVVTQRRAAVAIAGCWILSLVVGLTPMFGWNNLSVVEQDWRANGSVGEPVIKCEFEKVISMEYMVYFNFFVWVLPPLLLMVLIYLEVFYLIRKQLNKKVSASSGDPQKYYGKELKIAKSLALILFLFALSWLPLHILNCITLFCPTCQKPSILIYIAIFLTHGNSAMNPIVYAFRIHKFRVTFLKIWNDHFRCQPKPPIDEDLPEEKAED
pKi: −log10 of the molar value.
observable: pKi

- CCCCn1c(=O)c2c(nc3n2CCCN3CCc2ccc(OCC(=O)NCc3ccc(Cl)cc3)cc2)n(CCCC)c1=O: 6.23
- CCCCn1c(=O)c2c(nc3n2CCCN3CCc2ccc(OCC(=O)NCc3ccc(F)cc3)cc2)n(CCCC)c1=O: 6.00

P: CCCn1c(=O)c2c(nc3n2CCCN3CCc2ccc(OCC(=O)NCCc3ccccn3)cc2)n(CCC)c1=O
Q: CCCn1c(=O)c2c(nc3n2CCCN3CCc2ccc(OCC(=O)NCc3cccc(Cl)c3)cc2)n(CCC)c1=O
Quick check, higher pKi between P and Q ? Mark your answer with the label of the selected entry.
P

---

experimental.system: Adenosine receptor A2b (Homo sapiens) (UniProt P29275)
Sequence (P29275 whole entry): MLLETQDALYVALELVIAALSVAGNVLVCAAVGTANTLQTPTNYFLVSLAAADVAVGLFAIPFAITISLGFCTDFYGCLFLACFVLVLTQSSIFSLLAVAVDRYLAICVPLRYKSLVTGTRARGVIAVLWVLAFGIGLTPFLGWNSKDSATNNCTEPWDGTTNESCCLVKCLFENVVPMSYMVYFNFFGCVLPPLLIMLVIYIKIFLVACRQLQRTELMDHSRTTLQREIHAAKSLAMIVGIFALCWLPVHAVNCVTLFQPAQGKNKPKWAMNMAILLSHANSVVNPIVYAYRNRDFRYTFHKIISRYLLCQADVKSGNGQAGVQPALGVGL
procedure.summary: Displacement of [3H]PSB-603 from human adenosine A2B receptor expressed in CHO cell membranes at 1 uM relative to control
observable: inhibition (%)

// worked examples, inhibition included
• CCCn1c(=O)c2c(nc3n2CCCN3CCc2ccc(OCC(=O)NCCc3ccc(S(N)(=O)=O)cc3)cc2)n(CCC)c1=O = 30
• CCCCn1c(=O)c2c(nc3n2CCCN3CCc2ccc(OCC(=O)NCCc3ccc(S(N)(=O)=O)cc3)cc2)n(CCCC)c1=O = 31
• CCCCn1c(=O)c2c(nc3n2CCCN3CCc2ccc(OCC(=O)NCc3ccc(Cl)cc3)cc2)n(CCCC)c1=O = 31
• CCCCn1c(=O)c2c(nc3n2CCCN3CCc2ccc(OCC(=O)NCc3cccc(Cl)c3)cc2)n(CCCC)c1=O = 18
• CCCn1c(=O)c2c(nc3n2CCCN3CCc2ccc(OCC(=O)NCCc3ccccn3)cc2)n(CCC)c1=O = 39
• CCCCn1c(=O)c2c(nc3n2CCCN3CCc2ccc(OCC(=O)NCCc3ccccn3)cc2)n(CCCC)c1=O = 39
• CCCn1c(=O)c2c(nc3n2CCCN3CCc2ccc(OCC(=O)NCc3cccc(Cl)c3)cc2)n(CCC)c1=O = 22
• CCCCn1c(=O)c2c(nc3n2CCCN3CCc2ccc(OCC(=O)NCc3cccc(OC)c3)cc2)n(CCCC)c1=O = 41
• CCCn1c(=O)c2c(nc3n2CCCN3CCc2ccc(OCC(=O)NCc3cccc(OC)c3)cc2)n(CCC)c1=O = 39
• CCCn1c(=O)c2c(nc3n2CCCN3CCc2ccc(OCC(=O)NCc3ccc(F)cc3)cc2)n(CCC)c1=O = 31

I: CCCn1c(=O)c2c(nc3n2CCCN3CCc2ccc(OCC(=O)NCc3ccccc3)cc2)n(CCC)c1=O
II: CCCCn1c(=O)c2c(nc3n2CCCN3CCc2ccc(OCC(=O)NCc3ccc(F)cc3)cc2)n(CCCC)c1=O
III: CCCn1c(=O)c2c(nc3n2CCCN3CCc2ccc(OCC(=O)NCc3ccc(Cl)cc3)cc2)n(CCC)c1=O
List these items ordered by inhibition, big to small. Return value: ordered labels per request.
II, I, III
(II: 43%, I: 22%, III: -4%)
